# Species: Rattus norvegicus
# procedure summary: DrugMatrix - Regimen: Daily Repeat
# Assay type: toxicity, organism-based, Sprague-Dawley
# Set-up: regimen Daily Repeat, gender Male, age 6-8 weeks
# experimental setup: in vivo, po, 0 mg/kg, 72 h, tissue Blood, route oral GAVAGE, dose level Control, time 3 day, vehicle .5 % CMC
quantity kind: LEUKOCYTE COUNT (x10E3/uL)
Numbers only, in x10E3/uL.

{"compound": "CC(C)[C@H]1CC[C@H](C(=O)N[C@H](Cc2ccccc2)C(=O)O)CC1 [NATEGLINIDE]", "LEUKOCYTE COUNT / x10E3/uL": 9.93}
{"compound": "CN1C(=O)COc2c(C(=O)NC3CN4CCC3CC4)cc(Cl)cc21 (stereo unspecified)", "LEUKOCYTE COUNT / x10E3/uL": 17.57}
{"compound": "Cc1onc(-c2ccccc2)c1-c1ccc(S(N)(=O)=O)cc1", "LEUKOCYTE COUNT / x10E3/uL": 9.78}

I'm hoping you can list LEUKOCYTE COUNT for every compound here, please.
1. O=C1CCC(N2C(=O)c3ccccc3C2=O)C(=O)N1 (stereo unspecified) [THALIDOMIDE]
2. C[C@](O)(CS(=O)(=O)c1ccc(F)cc1)C(=O)Nc1ccc(C#N)c(C(F)(F)F)c1 [(R)-BICALUTAMIDE]

1: 9.83; 2: 15.25

Per the records, this compound ( N=C(N)NC(=O)c1nc(Cl)c(N)nc1N [AMILORIDE] ) has LEUKOCYTE COUNT equal to 11.13
